target: T1, AFP158/HLA-A*02:01 complex (human); assay: SPR, crude scFv captured, pMHC analyte;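 also: Peptide-MHC complex at several concentrations passed over captured scFv, association then buffer-driven dissociation, on- and off-rates fitted from the curves and KD estimated from them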
T1 construct: flowed as analyte in SPR
For each entry below, report its koff value.
Phrase the answer as number then unit, nothing more needed.

Field: example entries. Status: answers known.
binder="AS170036 VL1VH1-VLH98T (scFv) scFv: QSALTQPRSVSGSPGQSVTISCAGTSSDVGSENYVSWYQQHPGKAPKLMIYQVNKRASGVPDRFSGSKSGNTASLTISGLQAEDEADYYCASYRSSDTNIVFGGGTKLTVLGGGGSGGGGSGGGGSEVQLVESGGGLVQPGGSLRLSCAASGFTFSSYAMSWVRQAPGKGLEWVSTINSGTGSPYYADSVKGRFTISRDNSKNTLYLQMNSLRAEDTAVYYCAKNFFDGSWFLGPPAMDYWGQGTLVTVSSHHHHHH" endpoint_value="0.025 s⁻¹"
binder="AS170036 VL1VH1-VHG108E (scFv) scFv: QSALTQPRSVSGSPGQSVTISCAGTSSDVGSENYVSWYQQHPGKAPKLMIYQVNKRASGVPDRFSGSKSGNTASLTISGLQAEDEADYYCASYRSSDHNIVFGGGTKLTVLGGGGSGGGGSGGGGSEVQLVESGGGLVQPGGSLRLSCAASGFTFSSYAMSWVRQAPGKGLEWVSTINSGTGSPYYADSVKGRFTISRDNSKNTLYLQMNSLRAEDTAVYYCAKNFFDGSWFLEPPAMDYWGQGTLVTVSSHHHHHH" endpoint_value="0.02 s⁻¹"

Could you now consider this next binder?
Req: Returns the measured koff for the input binder. Input: AS170036 VL1VH1 (scFv, Crude scFv from E. coli TG1 supernatant; also called AS170036 VL1VH1 scFv) scFv: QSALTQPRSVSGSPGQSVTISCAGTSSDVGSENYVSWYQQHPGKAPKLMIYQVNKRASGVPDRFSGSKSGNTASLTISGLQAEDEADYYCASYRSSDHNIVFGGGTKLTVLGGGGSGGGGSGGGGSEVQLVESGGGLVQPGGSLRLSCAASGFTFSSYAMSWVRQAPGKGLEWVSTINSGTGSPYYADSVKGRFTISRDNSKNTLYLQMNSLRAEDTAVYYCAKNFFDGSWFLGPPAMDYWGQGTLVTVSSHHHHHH
Resp: 0.1 s⁻¹
